Value source: the NIST ThermoML archive (doi:10.1021/je200883w)

Parameter: viscosity. Scope: all listed entries.
# statedConditions: 313.15 K; 101.33 kPa; Liquid; Concentric cylinders viscometry
State just the number; it will be interpreted in mPa·s.

CCCC[N+]1(C)CCCC1.O=S(=O)([N-]S(=O)(=O)C(F)(F)F)C(F)(F)F = 41.65
CCCCn1cc[n+](C)c1C.O=S(=O)([N-]S(=O)(=O)C(F)(F)F)C(F)(F)F = 50.76
CCOS(=O)(=O)[O-].CCn1cc[n+](C)c1 [1-ethyl-3-methylimidazolium ethyl sulfate] = 50.25

Alright, here's another compound for you.
// query Quick one: viscosity for CCCCCCOS(=O)(=O)[O-].CC[n+]1ccn(C)c1 [3-ethyl-1-methyl-1H-imidazolium hexyl sulfate] ?
// result 137.23

###

# statedConditions: 298.15 K; 101.33 kPa; Liquid; Concentric cylinders viscometry
Numbers after ± are expanded uncertainties.
Listing of entries alongside the reported viscosity.
Hi, when you answer, please include the unit after the number. Thanks!

Known results for compounds:
CCOS(=O)(=O)[O-].CCn1cc[n+](C)c1 [1-ethyl-3-methylimidazolium ethyl sulfate] = 97.84 ± 2.5 mPa·s
CCCCCCCCCCCCCC[P+](CCCCCC)(CCCCCC)CCCCCC.FC(F)(F)C(F)(F)[P-](F)(F)(F)(C(F)(F)C(F)(F)F)C(F)(F)C(F)(F)F = 347.06 ± 12 mPa·s

Consider the additional compound presented here.
// query Field request: viscosity | item: `COCC[N+]1(C)CCCC1.O=S(=O)([N-]S(=O)(=O)C(F)(F)F)C(F)(F)F`
// result 55.06 ± 1.3 mPa·s

###

# statedConditions: 338.15 K; 101.33 kPa; Liquid; Vibrating tube method
propertyName: mass density (kg/m3)
Hi! Could you send only the number? It should be in kg/m3, unit omitted.

Sample records with mass density:
CCCC[N+]1(C)CCCC1.O=S(=O)([N-]S(=O)(=O)C(F)(F)F)C(F)(F)F = 1360
CCCCn1cc[n+](C)c1C.O=S(=O)([N-]S(=O)(=O)C(F)(F)F)C(F)(F)F = 1382.8
CCCC[N+]1(C)CCCC1.FC(F)(F)C(F)(F)[P-](F)(F)(F)(C(F)(F)C(F)(F)F)C(F)(F)C(F)(F)F = 1541.5
CCCC[N+]1(C)CCCC1.O=S(=O)([O-])C(F)(F)F [1-butyl-1-methylpyrrolidinium trifluoromethanesulfonate] = 1223.8
CCCCCCOS(=O)(=O)[O-].CC[n+]1ccn(C)c1 [3-ethyl-1-methyl-1H-imidazolium hexyl sulfate] = 1104.4
CCOS(=O)(=O)[O-].CCn1cc[n+](C)c1 [1-ethyl-3-methylimidazolium ethyl sulfate] = 1210.6
COCC[N+]1(C)CCCC1.O=S(=O)([N-]S(=O)(=O)C(F)(F)F)C(F)(F)F = 1417.4

// query What value of measured mass density is listed for `CCCCCCCCCCCCCC[P+](CCCCCC)(CCCCCC)CCCCCC.FC(F)(F)C(F)(F)[P-](F)(F)(F)(C(F)(F)C(F)(F)F)C(F)(F)C(F)(F)F` ?
// result 1149.3

###

# statedConditions: 273.15 K; 101.33 kPa; Liquid; Concentric cylinders viscometry
Reported viscosity values for the following molecules.
Report the value in mPa·s with no unit label.

Worked examples follow.
CCCCn1cc[n+](C)c1C.O=S(=O)([N-]S(=O)(=O)C(F)(F)F)C(F)(F)F = 518.55
CCCCCCOS(=O)(=O)[O-].CC[n+]1ccn(C)c1 [3-ethyl-1-methyl-1H-imidazolium hexyl sulfate] = 2124.1
CCCCCCCCCCCCCC[P+](CCCCCC)(CCCCCC)CCCCCC.FC(F)(F)C(F)(F)[P-](F)(F)(F)(C(F)(F)C(F)(F)F)C(F)(F)C(F)(F)F = 2010
COCC[N+]1(C)CCCC1.O=S(=O)([N-]S(=O)(=O)C(F)(F)F)C(F)(F)F = 204.56

Next item in the queue.
// query Entry CCOS(=O)(=O)[O-].CCn1cc[n+](C)c1 [1-ethyl-3-methylimidazolium ethyl sulfate] : reported viscosity = ?
// result 466.03
